Data credit: patent US20250367129A1

test_protocol: LNP size and polydispersity index by Malvern Zetasizer dynamic light scattering (CA HA modFlu mRNA LNPs)
Assay type: physicochemical
condition_details: LNP of the ionizable lipid:cholesterol:DSPC:ALC-0159 about 46.3:42.7:9.4:1.6, N:P about 6:1, CA HA modFlu mRNA; DLS
Procedure: Lipid nanoparticles were prepared and tested according to the general procedures described in U.S. Pat. No. 9,737,619 (PCT Pub. No. WO2015/199952) and U.S. Pat. No. 10,166,298 (PCT Pub. No. WO 2017/075531) and PCT Pub. No. WO2020/146805. […] Total RNA concentration and encapsulation efficiency was assessed using the RiboGreen RNA quantitation assay. RNA integrity pre and post formulation was monitored by Agilent Fragment Analyzer capillary gel electrophoresis. […]
endpoint_name: Size (nm)

>>> df
                                   molecule  test_value
0  CCCCCCCC(CCCCCCC)C(=O)O[C@@H]1CC2(CCN(CCCNc3c(NC)c(=O)c3=O)CC2)C[C@H]1OC(=O)C(CCCCCCC)CCCCCCC (racemic)       65 nm
1  CCCCCCCC(CCCCCCC)C(=O)OCC(COC(=O)C(CCCCCCC)CCCCCCC)N1CC2(CCN(CCCCCO)CC2)C1      149 nm
2  CCCCCCCCC(CCCCCC)C(=O)OCC(COC(=O)C(CCCCCC)CCCCCCCC)N1CCC2(CC1)CN(CCCCO)C2 (stereo not drawn)      120 nm

###

test_protocol: Encapsulation efficiency, RiboGreen RNA quantitation assay (CA HA modFlu mRNA LNPs)
Assay type: physicochemical
condition_details: LNP with CA HA modFlu mRNA
endpoint_name: EE %

>>> print(df.to_string())
                                    compound  endpoint_name  test_value
 0  CCCCCCCCC(CCCCCCC)C(=O)O[C@@H]1CC2(CCN(CCCCO)CC2)C[C@H]1OC(=O)C(CCCCCCC)CCCCCCCC (mixture of isomers)           EE %         97%
 1  CCCCCCCCC(CCCCCC)CC(=O)OCC(COC(=O)CC(CCCCCC)CCCCCCCC)N1CCC2(CCN(CCCCO)CC2)CC1 (centres unmarked)           EE %         99%
 2  CCCCCCCC(CCCCCCC)C(=O)OCC(COC(=O)C(CCCCCCC)CCCCCCC)C1CCC2(CC1)CCN(CCCCO)CC2           EE %        100%
 3  CCCCCCC(CCCC)(CCCC)CC(=O)OCC(COC(=O)CC(CCCC)(CCCC)CCCCCC)N1CCC2(CCN(CCCCO)CC2)CC1           EE %        100%
 4  CCCCCCCCC(CC1CCCCC1)C(=O)OCC(COC(=O)C(CCCCCCCC)CC1CCCCC1)N1CCC2(CCN(CCCCO)CC2)CC1 (centres unmarked)           EE %         99%
 5  CCCCCCCC(CCCCCCC)C(=O)OCC(COC(=O)C(CCCCCCC)CCCCCCC)N1CC2(CCN(CCCCO)CC2)C1           EE %         99%
 6  CCCCCCCCCCCCC(CCCCCCC)C(=O)O[C@@H]1CC2(CCN(CCCCO)CC2)C[C@H]1OC(=O)C(CCCCCCC)CCCCCCCCCCCC (mixture of isomers)           EE %         98%
 7  CCCCCCCC(CCCCCCC)C(=O)O[C@@H]1CC2(CCN(CCCO)CC2)C[C@H]1OC(=O)C(CCCCCCC)CCCCCCC (racemic)           EE %         98%
 8  CCCCCCCC(CCCCCCC)C(=O)OCC(COC(=O)C(CCCCCCC)CCCCCCC)N1CCC2(CCN(CCCCCO)CC2)CC1           EE %         99%
 9  CCCCCCCC(CCCCCCC)C(=O)OCC(COC(=O)C(CCCCCCC)CCCCCCC)N1CCC2(CCN(CCCCO)C2)CC1           EE %         99%
10  CCCCCCCC(CCCCCCC)C(=O)O[C@@H]1CC2(CCN(CCCO)C2)C[C@H]1OC(=O)C(CCCCCCC)CCCCCCC (racemic)           EE %         94%
11  CCCCCCCCC(CCCCC)C(=O)O[C@@H]1CC2(CCN(CCCCO)CC2)C[C@H]1OC(=O)C(CCCCC)CCCCCCCC (mixture of isomers)           EE %         97%
12  CCCCCC/C=C\CCCC(=O)OCC(COC(=O)C(CCCCCC)CCCCCCCC)N1CCC2(CCN(CCCCO)CC2)CC1 (centres unmarked)           EE %         99%
13  CCCCCCCCC(CCCCCC)C(=O)OCC(COC(=O)C(CCCCCC)CCCCCCCC)N1CCC2(CCN(CCCCO)C2)CC1 (centres unmarked)           EE %        100%
14  CCCCCCCC(CCCCCCC)C(=O)OCC(COC(=O)C(CCCCCCC)CCCCCCC)N1CCC2(CCN(CCCNc3c(NC)c(=O)c3=O)CC2)CC1           EE %        100%
15  CCCCCCCCC(CC1CCCC1)C(=O)OCC(COC(=O)C(CCCCCCCC)CC1CCCC1)N1CCC2(CCN(CCCCO)CC2)CC1 (centres unmarked)           EE %        100%
16  CCCCCCCC(CCCCCCC)C(=O)O[C@H]1CC2(CCN(CCCCO)CC2)C[C@@H]1OC(=O)C(CCCCCCC)CCCCCCC (single isomer, unassigned)           EE %         98%
17  CCCCCCCCC(CCCCCC)C(=O)OCC(COC(=O)C(CCCCCC)CCCCCCCC)N1CCC2(CCN(C(C)CCCO)CC2)CC1 (centres unmarked)           EE %         99%
18  CCCCCCCCC(CCC1CCC1)C(=O)OCC(COC(=O)C(CCCCCCCC)CCC1CCC1)N1CCC2(CCN(CCCCO)CC2)CC1 (centres unmarked)           EE %         99%
19  CCCCCCCC(CCCCCCC)C(=O)OCC(COC(=O)C(CCCCCCC)CCCCCCC)N1CCC2(CCN(CCCCCO)C2)C1 (centres unmarked)           EE %         99%
20  CCCCCCCCC(CCCCCC)C(=O)OCC(COC(=O)C(CCCCCC)CCCCCCCC)N1CCC2(CCN(CCCNS(=O)(=O)CC)CC2)CC1 (centres unmarked)           EE %         99%
21  CCCCCCCCCC(=O)OCC(COC(=O)C(CCCCCC)CCCCCCCC)N1CCC2(CCN(CCCCO)CC2)CC1 (centres unmarked)           EE %         99%
22  CCCCCCCC(CCCCCCC)C(=O)O[C@@H]1CC2(CCN(CCO)CC2)C[C@H]1OC(=O)C(CCCCCCC)CCCCCCC (racemic)           EE %         99%
23  CCCCC(CCCC)C(CCCC)CCC(=O)OCC(COC(=O)CCC(CCCC)C(CCCC)CCCC)N1CCC2(CCN(CCCCO)CC2)CC1 (centres unmarked)           EE %        100%
24  CCCCCCCCC(CCCCCC)C(=O)OCC(COC(=O)C(CCCCCC)CCCCCCCC)N1CC2(CCN(CCCCCO)CC2)C1 (centres unmarked)           EE %         99%
25  CCCCCCCCC(CCCCCCC)C(=O)OCC(COC(=O)C(CCCCCCC)CCCCCCCC)N1CCC2(CCN(CCCCO)CC2)CC1 (centres unmarked)           EE %        100%

###

test_protocol: LNP size and polydispersity index by Malvern Zetasizer dynamic light scattering (CA HA modFlu mRNA LNPs)
Format: physicochemical
condition_details: LNP of the ionizable lipid:cholesterol:DSPC:ALC-0159 about 46.3:42.7:9.4:1.6, N:P about 6:1, CA HA modFlu mRNA; DLS
Recorded measurements of Size (nm), one per entry
endpoint_name: Size (nm)

                                   compound  test_value
0  CCCCCCCCC(CCCCCC)C(=O)OCCC(CCOC(=O)C(CCCCCC)CCCCCCCC)N1CCC2(CCN(CCCCO)CC2)CC1 (stereo not shown)         110
1  CCCCCCCC(CCCCCCC)C(=O)OCC(COC(=O)C(CCCCCCC)CCCCCCC)N1CCC2(CC1)CN(CCCCO)C2         105
2  CCCCCCCCCCCCCCCC(=O)OCC(COC(=O)C(CCCCCC)CCCCCCCC)N1CCC2(CCN(CCCCO)CC2)CC1 (stereo not shown)          84
3  CCCCCCCCC(CCCCC)C(=O)OCC(COC(=O)C(CCCCC)CCCCCCCC)N1CCC2(CCN(CCCCO)CC2)CC1 (stereo not shown)         130
